The reported measurements were obtained from ChEMBL document CHEMBL4296182.

Hi there, I'd appreciate the recorded Inhibition for every entry that follows.
# Tested on: Staphylococcus aureus
# experiment.summary: Antibacterial activity against Staphylococcus aureus MRSA ATCC 43300 (CO-ADD:GP_020); MIC in CAMBH media using NBS plates, by Resazurin F(560/590)
# Format: functional
# protocol.conditions: Concentration 20 uM, ASSAY_TEST Inhibition of Bacterial Growth, detection method Resazurin, Fluorescence (ex560/em590), MEDIA CAMHB, plate type 384well, CORNING #3640, time 18 hr
One number for each entry, in %.

Use the examples below as a reference point.
compound	unit.of.measurement	numeric.result
COc1cc(C(O)c2nc3ccccc3s2)cc(OC)c1OC (stereo not drawn)	%	9.75
COC(=O)c1ccc(C(=O)OC)c(O)n1	%	3.27
ON=C(NCc1ccccc1)c1ccccc1	%	-15.15
Nc1nc2c[nH]c(N)nc-2n1	%	-4.21
CS(=O)(=O)Nc1nc2ccccc2[nH]1	%	10.98

For each of the items listed, what is its Inhibition?
1. CC12CCC(/C(=N/c3ccc(/N=C4\C(=O)C5(C)CCC4C5(C)C)cc3)C1=O)C2(C)C
2. Cn1c(=O)c2c(nc(Cc3ccccc3)n2C)n(C)c1=O
3. Cc1nc2c(O)cccc2cc1CO
4. OCC1(CO)COC2(CCCC2)N1
5. CCCCCc1cccnc1
6. ClC(Cl)(Cl)C1=Nc2c(nnn2Cc2ccccc2)CN1
7. N=C1OC(c2ccccc2)C(O)=C1O (stereo not drawn)

**A:**
1: -7.11; 2: 3.97; 3: 12.47; 4: 5.01; 5: 1.69; 6: 1.51; 7: 0.33

For each of the items listed, what is its Inhibition?
1. CNc1nc(SC)n(C)c(=O)c1N=O
2. NC(=O)c1ccccc1NC(=O)COc1ccc(Cl)cc1
3. CC(=O)Nc1ccc(S(=O)(=O)N=S(C)C)cc1

**A:**
[10.57, 16.24, 11.09]

For each of the items listed, what is its Inhibition?
1. CC(C)(C)NC(=O)c1ccc(C(=O)NC(C)(C)C)cc1
2. Nc1ccc(N/C(S)=N/c2ccccc2)cc1
3. CN1CCN(C(=O)/C=C/c2ccc([N+](=O)[O-])o2)CC1

**A:**
1: -9.07; 2: 15.05; 3: 14.1

For each of the items listed, what is its Inhibition?
1. Cc1cc(=O)[nH]/c(=N/N=C2/CCCCC2C)[nH]1 (stereo not drawn)
2. Cc1cc(-n2cnc3c(O)ncnc32)ccc1N
3. O=C1c2cccc(Oc3ccccc3)c2C(=O)c2cccc(Oc3ccccc3)c21
4. O=c1[nH]c(=S)c2ncn(-c3ccccc3)c2[nH]1
5. CC1CN(CCN2CC(C)N(C=O)CC2C)C(C)CN1C=O (stereo not drawn)

**A:**
[22.54, 0.18, 12.36, -3.01, -7.66]

For each of the items listed, what is its Inhibition?
1. O=C(Nc1ccc(Cl)cc1)c1cc2c(cc1O)[nH]c1ccccc12
2. O=c1ccn2c(n1)SC(c1ccccc1)C2 (stereo not drawn)
3. Nc1ccc(OC(=O)Nc2ccc(O)cc2)cc1
4. Cc1cc(/C=C2\SC(=S)NC2=O)cc(C)c1O
5. COc1cc(-c2ccc(NC(=O)NC3CC3)c(OC)c2)ccc1NC(=O)NC1CC1

**A:**
-1.15
9.54
-11.3
-3.17
15.12

For each of the items listed, what is its Inhibition?
1. NC(=O)C1=CC2C3C=CC2(O)C(=O)OC3O1 (stereo not drawn)
2. CCN(CC)CCNC(=O)C(Cl)=C1C(Cl)=C(Cl)C(Cl)=C1Cl
3. CCC(C)n1c(C)cc(=O)n1C(C)CC (stereo not drawn)
4. Cc1cc2nc(-c3ccccn3)c(-c3ccccn3)nc2cc1C

**A:**
-0.72
7.61
2.1
-0.99

For each of the items listed, what is its Inhibition?
1. COc1cc2c(NCCCCCO)ncnc2c(OC)c1OC
2. O=C1OCC/C1=C\c1ccc2c(c1)OCO2
3. Nc1[nH]nc2nc(-c3ccccc3)nc(O)c12

**A:**
1: 13.68; 2: 9.07; 3: -2.47

For each of the items listed, what is its Inhibition?
1. Cc1ccn(C)c(=N)c1
2. Nc1ccc(C(=O)Nc2ccc(Nc3ccncc3)cc2)cc1
3. O=C(Nc1ccc(NC(=O)c2ccncc2)cc1)c1ccncc1
4. CCOc1nsc(OCC)n1
5. CCN(CC)CCNc1c(C)nc(C#N)c(N)[n+]1[O-]
6. CCC/C(C)=C/c1ccc(CC)cn1

**A:**
[5.26, -3.72, 23.04, 10.98, 6.23, 1.51]

For each of the items listed, what is its Inhibition?
1. OC(C#Cc1ccccc1)(c1ccccc1)c1ccccc1
2. c1ccc(-n2c3ccccc3c3ccccc32)cc1

**A:**
1: 14.7; 2: 0.65

* * *

# Tested on: Cryptococcus neoformans
# protocol.conditions: Concentration 20 uM; ASSAY_TEST Inhibition of Fungal Growth; detection method Resazurin; Absorption (OD600-OD570); plate type 384well; NBS; CORNING #3640
# Description: Antifungal activity against Cryptococcus neoformans H99 ATCC 208821 (CO-ADD:FG_002); MIC in YNB media using NBS plates, by Resazurin OD(600-570)
Results with a measured potency or affinity are listed apart.
Hi there, I'd appreciate the recorded Inhibition for every entry that follows.
One number for each entry, in %.

Use the examples below as a reference point.
compound	numeric.result
CC1(C)CC2(C)OC2C2(C1)N=N/C(=N/c1ccccc1)O2 (stereo not given)	-10.74
CC1=CC(C)(C)N=C(S)N1c1cccc2cc(S(=O)(=O)O)ccc12	39.69

For each of the items listed, what is its Inhibition?
1. O=C(Nc1cccc(Cl)c1)Nn1cnnc1
2. Cc1c(Cl)cccc1NC(=O)CC1Sc2ccccc2NC1=O (stereo not given)
3. CCOc1ccc(/C=C2\CCc3ccccc3C2=O)cc1
4. c1ccc2c(c1)Nc1ccncc1S2
5. CCOC(=O)CC1(C)NC(C(=O)O)C(C)(C)S1 (stereo not given)
6. CCOC(=O)c1c(N=C(S)NC)sc2c1CCCC2
7. CC(C)NC(=O)Nc1cccc(Cl)c1

**A:**
-3.41
45.43
-7.99
-9.93
0.86
-11.99
-9.01

For each of the items listed, what is its Inhibition?
1. CC1(C)N=C(N)N=C(N)N1c1cccc(CN)c1.CCS(=O)(=O)O
2. O=C(NCc1ccco1)Nc1ccc([N+](=O)[O-])cc1
3. CCc1cccc2[nH]c3cc([N+](=O)[O-])ccc3c12
4. O=c1cc(-c2ccc(O)cc2)oc2c(O)c(O)c(O)c(O)c12
5. Brc1csc2ncccc12
6. O=C(NC(=S)Nc1cccc(O)c1)c1ccco1
7. O=c1cc(-c2cccnc2)oc2c1ccc1ccccc12
8. OCCN1CCSC1=S

**A:**
[-7.41, -12.12, 12.93, -2.27, -5.07, -18.75, -11.93, -6.82]

* * *

# System: Candida albicans
# protocol.conditions: 20 µM
# Description: Antifungal activity against Candida albicans ATCC 90028 (CO-ADD:FG_001); MIC in YNB media using NBS plates, by OD630
Measured potencies and affinities stand elsewhere.
Hi there, I'd appreciate the recorded Inhibition for every entry that follows.
One number for each entry, in %.

Use the examples below as a reference point.
compound	numeric.result
S=C1N(c2ccccc2)CN(C2CCCCC2)CN1c1ccccc1	3.07
Cc1nc([N+](=O)[O-])cn1-c1nc2ccccn2c1[N+](=O)[O-]	4.75
c1ccc(-c2nc3ccccc3s2)nc1	0.91
O=C1c2ccccc2C(=O)c2c(Nc3ccc(CCO)cc3)ccc(O)c21	-0.52
Oc1ccc(/N=N/c2nccs2)c(O)c1	29.2
Nc1nc(=S)ss1	3.85
Cn1c(=O)c2nc(COc3ccc(C(C)(C)C)cc3)[nH]c2n(C)c1=O	3.68
COc1cc(CC(=O)C(=O)O)oc(=O)c1	3.8
CC(C)(C)n1nc(C2CC2)cc1NC(=O)Nc1ccc(Cl)cc1	4.6
CCCSc1nc2c(c(=O)n(C)c(=O)n2C)n1C	2.63

For each of the items listed, what is its Inhibition?
1. Nc1ccccc1-n1nc2ccc3ccccc3c2n1
2. CSc1ccc(NC(=O)Nc2ccccc2C(N)=O)cc1
3. CCN1CCCCC(=N\O)/C(=N/O)CCCC1
4. Cc1c([N+](=O)[O-])oc2c1C(=O)NCCC2
5. CC1CC(C)(C)C2=NCCN21 (stereo unspecified)
6. CN1N=C(N)c2cn(C3OC(COP(=O)(O)O)C(O)C3O)c3ncnc1c23 (stereo unspecified)

**A:**
1: 3.16; 2: 4.24; 3: -0.06; 4: 2.94; 5: 5.23; 6: -1.48

* * *

# System: Candida albicans
# protocol.conditions: 20 µM
Results with a measured potency or affinity are listed apart.
Hi there, I'd appreciate the recorded Inhibition for every entry that follows.
Numbers only, in %.

Use the examples below as a reference point.
molecule	tested.system	Inhibition [%]
COc1ccc(NC(=O)c2cc3ccc4c5ccccc5[nH]c4c3cc2O)cc1	Candida albicans	-5.12
CCC1=C(c2ccc(OC)cc2)CCC(C(=O)O)C1C (centres undefined)	Candida albicans	12.4
CC1(C)CC2(C)OC2C2(C1)N=N/C(=N/c1ccccc1)O2 (centres undefined)	Candida albicans	-0.47
CN1CCN(C(=O)/C=C/c2ccc([N+](=O)[O-])o2)CC1	Candida albicans	3.54
O=C(O)c1ccc2c(c1Nc1ccccc1)C(=O)c1ccccc1C2=O	Candida albicans	1.26
S=c1c2nc[nH]c2ncn1CCSC1=NC=NC2=NC=NC21 (centres undefined)	Candida albicans	5.38
Cc1ccc(C2C=CC(C#N)=CN2Cc2ccccc2)cc1 (centres undefined)	Candida albicans	-1.48
CCCn1cnc2c(S)nc(N)nc21	Candida albicans	-1.47

For each of the items listed, what is its Inhibition?
1. CC1(C)OC2CC(=O)OCC23C1CC(=O)C1(C)C3CCC2(C)C(c3ccoc3)OC(=O)C3OC321 (centres undefined)
2. O=c1[nH]nc(-c2cc(-c3ccccc3)nc3ccccc23)o1
3. CN1C(=O)c2ccccc2Cc2c(NCc3ccccc3)ncnc21
4. CCNc1nc(NC(C)C)nc(-c2ccncc2)n1
5. N#C/C(=C\c1c[nH]c2ccccc12)C(N)=O
6. Cc1cccc(C)c1NC(=O)Nc1ccc(S(N)(=O)=O)cc1
7. CSC(=NS(=O)(=O)c1ccccc1)NNC(=O)c1c(-c2c(Cl)cccc2Cl)noc1C

**A:**
1: 0.13; 2: 0.17; 3: 6.22; 4: 1.8; 5: 4.53; 6: 0.87; 7: 6.77
